ASSAY_REMARKS: Mouse pharmacokinetic study of oral GE with and without ketoconazole, plasma with and without β-glucuronidase treatment
Format: in vivo, male mice (C57BL6J)
CONDITIONS: GE administered group, mouse plasma; 3 h
MEASURED_PARAMETER: Concentration Ratio (Total/Free) of GE Phenolics

Some entries whose results are on file:
# COMPOUND, TEST_RESULT
records = [
    ("CCCCCCCC(O)CC(=O)CCc1ccc(O)c(OC)c1 (stereo not shown)", 29),
    ("CCCCC[C@H](O)CC(=O)CCc1ccc(O)c(OC)c1", 290),
]

A = CCCCC/C=C/C(=O)CCc1ccc(O)c(OC)c1
B = CCCCCCCCCC(O)CC(=O)CCc1ccc(O)c(OC)c1 (stereo not shown) [10G, 10-gingerol]
Endpoint returns the identifier whose Concentration Ratio (Total/Free) of GE Phenolics is numerically larger, either A or B . # answer = label of selected item
B
(B: 9, A: 0)

###

ASSAY_REMARKS: Liver microsomal stability, rat
Assay type: in vitro ADME, IGS Sprague-Dawley rat
CONDITIONS: IGS Sprague-Dawley, pooled liver microsomes, pH 7.4, substrate 10 µM, protein 0.5 mg/mL, n = 2, read-out: % Remaining at 30 min
Description: Pooled liver microsomes from CD1 mouse, IGS Sprague-Dawley rat, Beagle dog, and mixed gender human were used for assays. Incubations (1 mL) consisted of liver microsomes (0.5 mg/mL), NADPH (1 mM) and 100 mM sodium phosphate buffer (pH 7.4). Following pre-incubation (10 min, 37 °C), reactions were initiated by spiking ACN/DMSO (80:20) stock solutions of GE phenolics (5 μL, 10 μM). […]
MEASURED_PARAMETER: remaining at 0.5 h, 10 µM (%)

A = CCCCCCCC(O)CC(=O)CCc1ccc(O)c(OC)c1 (stereo not shown)
B = CCCCC[C@H](O)CC(=O)CCc1ccc(O)c(OC)c1
C = CCCCCCCCCC(O)CC(=O)CCc1ccc(O)c(OC)c1 (stereo not shown) [10G, 10-gingerol]
D = CCCCC/C=C/C(=O)CCc1ccc(O)c(OC)c1
Exam item: list the entries in increasing order of remaining at 0.5 h, 10 µM. Returns: the labels arranged in the requested order.
D, A, C, B

###

ASSAY_REMARKS: Solubility and stability in simulated intestinal fluid (SIF)
Format: in vitro ADME
CONDITIONS: pH 6.8, 37 °C, n = 2
MEASURED_PARAMETER: half-life at 10 µM

Answered examples (3):
# COMPOUND, half-life at 10 µM
measured = [
    ("CCCCCCCC(O)CC(=O)CCc1ccc(O)c(OC)c1 (stereo not shown) [8G, 8-gingerol]", "> 2 h"),
    ("CCCCC[C@H](O)CC(=O)CCc1ccc(O)c(OC)c1 [6G, 6-gingerol]", "> 2 h"),
    ("CCCCC/C=C/C(=O)CCc1ccc(O)c(OC)c1 [6S, 6-shogaol]", "> 2 h"),
]

Lab note: next compound to report on.
If you can, please state the reported half-life at 10 µM value of CCCCCCCCCC(O)CC(=O)CCc1ccc(O)c(OC)c1 (stereo not shown) [10G, 10-gingerol] .
> 2 h

###

ASSAY_REMARKS: Mouse pharmacokinetic study of oral GE with and without ketoconazole, plasma with and without β-glucuronidase treatment
Assay type: in vivo, male mice (C57BL6J)
CONDITIONS: +KTZ +βgd; reference GE group untreated with βgd
MEASURED_PARAMETER: AUClast Ratio

A = CCCCCCCC(O)CC(=O)CCc1ccc(O)c(OC)c1 (stereo not shown)
B = CCCCCCCCCC(O)CC(=O)CCc1ccc(O)c(OC)c1 (stereo not shown) [10G, 10-gingerol]
Could you please tell me which of these two has the higher AUClast Ratio: A or B ? Reply with the label of the item you choose.
A

1 = CCCCC/C=C/C(=O)CCc1ccc(O)c(OC)c1
2 = CCCCC[C@H](O)CC(=O)CCc1ccc(O)c(OC)c1
Which gives the smaller AUClast Ratio number: 1 or 2 ? Reply briefly: the label of your chosen item.
1

###

ASSAY_REMARKS: Mouse pharmacokinetic study of oral GE with and without ketoconazole, plasma with and without β-glucuronidase treatment
Assay type: in vivo, male mice (C57BL6J)
CONDITIONS: male, C57BL6J; mouse plasma; 250 mg/kg GE oral; 4 h; −βgd
Procedure: A solution formulation of GE was prepared by using 5% ethanol, 5% Tween 80, 40% polyethylene glycol, and 50% corn oil. The dose volume was 10 mL/kg and the dose administered was 250 mg/kg GE. […] To confirm the presence of GE glucuronide conjugates, plasma (100 μL) was treated with βgd (20 μL, 500 units) and incubated at 37 °C for 1 h. Each sample was analyzed twice with and without β-gd treatment. […]
MEASURED_PARAMETER: concentration at 4 h (ng/mL)

P = CCCCC[C@H](O)CC(=O)CCc1ccc(O)c(OC)c1
Q = CCCCCCCCCC(O)CC(=O)CCc1ccc(O)c(OC)c1 (stereo not shown) [10G, 10-gingerol]
R = CCCCC/C=C/C(=O)CCc1ccc(O)c(OC)c1
S = CCCCCCCC(O)CC(=O)CCc1ccc(O)c(OC)c1 (stereo not shown)
Endpoint returns the given molecules ordered by ascending concentration at 4 h. # format: label list in the order the request specifies
R, S, P, Q
(R: 0 ng/mL, S: 0.51 ng/mL, P: 0.82 ng/mL, Q: 3.06 ng/mL)

###

ASSAY_REMARKS: Mouse pharmacokinetic study of oral GE with and without ketoconazole, plasma with and without β-glucuronidase treatment
Type: in vivo, male mice (C57BL6J)
CONDITIONS: male, C57BL6J; mouse plasma; 250 mg/kg GE with 50 mg/kg ketoconazole oral; 1 h; −βgd
Protocol: A solution formulation of GE was prepared by using 5% ethanol, 5% Tween 80, 40% polyethylene glycol, and 50% corn oil. The dose volume was 10 mL/kg and the dose administered was 250 mg/kg GE. […] To confirm the presence of GE glucuronide conjugates, plasma (100 μL) was treated with βgd (20 μL, 500 units) and incubated at 37 °C for 1 h. Each sample was analyzed twice with and without β-gd treatment. […]
MEASURED_PARAMETER: concentration at 1 h (µg/mL)

A = CCCCC/C=C/C(=O)CCc1ccc(O)c(OC)c1
B = CCCCCCCCCC(O)CC(=O)CCc1ccc(O)c(OC)c1 (stereo not shown) [10G, 10-gingerol]
C = CCCCC[C@H](O)CC(=O)CCc1ccc(O)c(OC)c1
D = CCCCCCCC(O)CC(=O)CCc1ccc(O)c(OC)c1 (stereo not shown)
sort_by: concentration at 1 h; order: ascending; scope: items listed above Please respond with the labels ordered as the question requires.
A, D, B, C

###

ASSAY_REMARKS: Mouse pharmacokinetic study of oral GE with and without ketoconazole, plasma with and without β-glucuronidase treatment
Format: in vivo, male mice (C57BL6J)
CONDITIONS: male, C57BL6J; mouse plasma; 250 mg/kg GE with 50 mg/kg ketoconazole oral; 0.5 h; −βgd
Procedure: A solution formulation of GE was prepared by using 5% ethanol, 5% Tween 80, 40% polyethylene glycol, and 50% corn oil. The dose volume was 10 mL/kg and the dose administered was 250 mg/kg GE. […] To confirm the presence of GE glucuronide conjugates, plasma (100 μL) was treated with βgd (20 μL, 500 units) and incubated at 37 °C for 1 h. Each sample was analyzed twice with and without β-gd treatment. […]
MEASURED_PARAMETER: concentration at 0.5 h (ng/mL)

Below, 2 compounds whose answers are already recorded.
# COMPOUND, OUTPUT_UNIT, concentration at 0.5 h
measured = [
    ("CCCCC/C=C/C(=O)CCc1ccc(O)c(OC)c1", "ng/mL", 18600),
    ("CCCCCCCC(O)CC(=O)CCc1ccc(O)c(OC)c1 (stereo not shown)", "ng/mL", 7560),
]

1 = CCCCCCCCCC(O)CC(=O)CCc1ccc(O)c(OC)c1 (stereo not shown) [10G, 10-gingerol]
2 = CCCCC[C@H](O)CC(=O)CCc1ccc(O)c(OC)c1
Quick check, higher concentration at 0.5 h between 1 and 2 ? When you have decided, please share the label of that item.
2
(2: 37900 ng/mL, 1: 14000 ng/mL)

###

ASSAY_REMARKS: Mouse pharmacokinetic study of oral GE with and without ketoconazole, plasma with and without β-glucuronidase treatment
Format: in vivo, male mice (C57BL6J)
CONDITIONS: male, C57BL6J; mouse plasma; 250 mg/kg GE with 50 mg/kg ketoconazole oral; 6 h; −βgd
MEASURED_PARAMETER: concentration at 6 h (ng/mL)

# MOLECULE, concentration at 6 h [ng/mL]
measured = [
    ("CCCCC[C@H](O)CC(=O)CCc1ccc(O)c(OC)c1", 1.09),
]

P = CCCCCCCC(O)CC(=O)CCc1ccc(O)c(OC)c1 (stereo not shown)
Q = CCCCC/C=C/C(=O)CCc1ccc(O)c(OC)c1
R = CCCCCCCCCC(O)CC(=O)CCc1ccc(O)c(OC)c1 (stereo not shown) [10G, 10-gingerol]
Output the entries ranked by concentration at 6 h from maximum down to minimum. Would you mind listing the labels in the order asked for?
R, P, Q
(R: 8.07 ng/mL, P: 3.71 ng/mL, Q: 0 ng/mL)
